molecular target: Leukotriene B4 receptor 1 (Homo sapiens, UniProt Q15722); assay: Inhibitory concentration against human leukotriene B4 receptor using competing agent [3H]-LTB4 as radioligand in pH 7.2 buffer upon incubation for 1 hr at 37 degree C; (n=4)
Sequence (Q15722 whole entry): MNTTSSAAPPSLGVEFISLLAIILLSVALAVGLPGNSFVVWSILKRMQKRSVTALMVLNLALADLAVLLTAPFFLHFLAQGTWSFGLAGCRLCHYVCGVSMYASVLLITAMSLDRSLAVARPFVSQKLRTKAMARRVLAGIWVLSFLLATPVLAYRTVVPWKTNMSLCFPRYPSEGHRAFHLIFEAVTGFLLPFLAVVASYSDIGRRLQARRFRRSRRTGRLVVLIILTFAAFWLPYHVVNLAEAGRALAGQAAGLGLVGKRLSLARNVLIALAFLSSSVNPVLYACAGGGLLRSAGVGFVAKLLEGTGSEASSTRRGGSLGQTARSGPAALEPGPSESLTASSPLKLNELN
Reported Metric: IC50 (nM)

>>> df
                                smiles_data  observed_value
0  CC(C)(CCCCOc1cc(-c2ccccc2)cc(-c2ccccc2)n1)c1nnnn1CCCCC(=O)NCCCOCCOCCOCCCNC(=O)c1ccc(N/N=C/c2ccccc2S(=O)(=O)O)nc1              45

###

target: Leukotriene B4 receptor 1 (Homo sapiens); assay: Inhibitory concentration against human leukotriene B4 receptor using competing agent [3H]-LTB4 as radioligand in pH 7.2 buffer, for 1 hr at 37 degree C
pIC50: −log10 of the molar value.
Reported Metric: pIC50

In [3]: df
Out[3]:
                                smiles_data  reported_metric  observed_value
0  CC(C)(CCCCOc1cc(-c2ccccc2)cc(-c2ccccc2)n1)c1nnn[nH]1            pIC50            7.70
